Data origin, for the record: ChEMBL document CHEMBL1201862

# Test system: RXF 393
# PROTOCOL DETAILS: NCI tumour cell line growth inhibition, 48 h
Active and inactive are the calls of the source. Rule as the data show it: active = GI50 up to about 1.1 µM and inactive = higher.
ENDPOINT LABEL: GI50

Example compounds with recorded GI50:
COc1ccc(OC)c2c(C(=O)O)c(Cc3ccccc3)ccc12: > 100 µM (inactive)
O=C1OC(CC(=O)c2ccc(Cl)cc2Cl)C(Cl)=C1Cl (stereo not given): 18.2 µM (inactive)

Turning to the following compound.
GI50 for O=C(CNC(=O)OCc1ccccc1)NCCCCC(NC(=O)OCc1ccccc1)C(=O)O (stereo not given) is > 100 µM (inactive)

====

GI50: recorded values
# System: IGROV-1
# PROTOCOL DETAILS: NCI tumour cell line growth inhibition, 48 h
Active and inactive are the calls of the source. Rule as the data show it: active = GI50 up to about 1.1 µM and inactive = higher.

c1ccc(CSC(SCc2ccccc2)c2ccc3c(c2)OCO3)cc1: > 10 µM (inactive)
Cc1ccc(CS(=O)(=O)C/N=C2\Sc3ccccc3N\C2=C/C(=O)c2ccc(Cl)cc2)cc1: > 10 µM (inactive)

Turning to the following compound.
GI50 for [O-][S+]1c2ccccc2NC(c2ccc3ccccc3c2)CC1c1ccccc1 (stereo not drawn) is 19.3 µM (inactive)
